Hi there, I'd appreciate the recorded IC50 for every entry that follows.
# System: UM-UC-3 cells
# procedure_details: CCK-8 anti-proliferative assay, UM-UC-3
# Type: cell-based, human
# study_conditions: Homo sapiens, UMUC3; Table 6; co-incubated 48 h; read-out: Anti-proliferative activity (IC50 ± standard deviation) UM-UC-3
One number for each entry, in µM.

Please review the following examples before continuing.
Look up IC50 for this molecule: `COc1cc2ncnc(NCc3cccc(NC(=O)Nc4cc(C(F)(F)F)cc(C(F)(F)F)c4)c3)c2cc1OCCCCCCN1CCN(CCN2CCOCC2)CC1`
6.72

Fill blank: measured IC50 of the molecule `COc1cc2ncnc(NCc3cccc(NC(=O)Nc4ccccc4Cl)c3)c2cc1OCCCCCCN1CCN(CCN2CCOCC2)CC1` is ____.
11.1

Look at this molecule and give its reported IC50. `COc1cc2ncnc(NCc3cccc(NC(=O)Nc4cccc(C)c4)c3)c2cc1OCCCCCCN1CCN(CCN2CCOCC2)CC1`
14.1

Bench note: what IC50 did `COc1cc2ncnc(NCc3cccc(NC(=O)Nc4ccc(C)cc4)c3)c2cc1OCCCCCCN1CCN(CCN2CCOCC2)CC1` show?
13.2

Look up IC50 for this molecule: CNC(=O)c1cc(Oc2ccc(NC(=O)Nc3ccc(Cl)c(C(F)(F)F)c3)cc2)ccn1 [Sora, sorafenib, reference compound]
14.3

Hey, can you go through the list below and give me IC50 for every item?
1. COc1cc2ncnc(NCc3cccc(NC(=O)NC4CCCCC4)c3)c2cc1OCCCCCCN1CCN(CCN2CCOCC2)CC1
2. COc1cc2ncnc(NCc3cccc(NC(=O)Nc4ccc(C(C)C)cc4)c3)c2cc1OCCCCCCN1CCN(CCN2CCOCC2)CC1
3. COc1cc2ncnc(NCc3cccc(NC(=O)Nc4ccc(C(C)(C)C)cc4)c3)c2cc1OCCCCCCN1CCN(CCN2CCOCC2)CC1
4. COc1cc2ncnc(NCc3cccc(NC(=O)Nc4ccc(F)cc4)c3)c2cc1OCCCCCCN1CCN(CCN2CCOCC2)CC1
5. COc1cc2ncnc(NCc3cccc(NC(=O)Nc4ccc(Cl)c(Cl)c4)c3)c2cc1OCCCCCCN1CCN(CCN2CCOCC2)CC1
6. COc1cc2ncnc(NCc3cccc(NC(=O)Nc4ccc(Cl)c(C(F)(F)F)c4)c3)c2cc1OCCCCCCN1CCN(CCN2CCOCC2)CC1

19
10
3.53
16.8
5.84
6.14
